tested on: MALME-3M melanoma; test: NCI-60 one-dose screen, 48 h; conditions: 10 µM
This is part of a sample that, as a whole, favours compounds with a hit. Of some 83,000 tested, about 20% had one in any assay. Activity calls are given as the source filed them. Rule for the calls: active = growth percent below 10; inactive = the rest.
Log the outcome using a class from active, inactive

Examples with answers:
COc1cc(-c2nn(-c3cccc(NC(=O)NCCNC(=O)c4cccc(C(F)(F)F)c4)c3)cc2-c2ccncc2)ccc1Cl	inactive
O=C(CCCSc1nc(-c2ccc(Cl)cc2)cc(-c2ccc(Cl)cc2)n1)NO	active
COc1cc2c3c(n([C@H]4CCOC4)c(=O)c2cc1OC)-c1cc2c(cc1C3=O)OCO2	inactive
CC(C)(C)OC(=O)CN1CCc2c(sc3ncnc(N/N=C/c4ccccc4Br)c23)C1	inactive
O=C(/C=C/C=C/c1c(C2CC2)nc2ccccc2c1-c1ccc(F)cc1)c1cccs1	active

Per the records of this test, what outcome belongs to COC(=O)c1cc2oc(/C=C3/SC(=S)N(N)C3=O)cc2n1Cc1ccccc1 ?
active

I'd appreciate the recorded outcome for O=C(Nc1ccc(OS(=O)(=O)c2ccccc2)cc1)C1CCCCC1 from this test.
inactive

Kindly provide the recorded test outcome for the following compound: COc1ccc2c(c1)C(=O)/C(=C/c1ncc([N+](=O)[O-])n1C)O2
active

Give the logged outcome of this assay for the following compound: CCCCC/C=C/C/C=C/CCCCCCCC1=NC(C)(C)CN1C(C)C
inactive
